# Test system: OVCAR-8
# ASSAY_PROCEDURE: NCI tumour cell line growth inhibition, 48 h
The source made the active and inactive calls. No stated cut-off is given here; in the data, active = GI50 up to about 1.1 µM and inactive = higher.
QUANTITY_MEASURED: GI50

INSERT INTO results (compound, test_system, recorded_measurement) VALUES
  ('COc1ccc(-c2cc(O)c3ccc(F)cc3n2)cc1', 'OVCAR-8', '> 100 µM (inactive)'),
  ('CN(C)Cc1cc(C(=O)/C=C/c2ccc(Br)cc2)cc(CN(C)C)c1O', 'OVCAR-8', '4.03 µM (inactive)'),
  ('OCCOCCN1CCN(CCCN2c3ccccc3Sc3ccc(C(F)(F)F)cc32)CC1', 'OVCAR-8', '15.2 µM (inactive)'),
  ('C=C1C2CC(OC(C)=O)C3(C)C(c4ccoc4)OC(=O)[C@@H](O)[C@]13OC1C[C@H](OC(C)=O)C(C)(C)[C@H](C(O)C(=O)OC)[C@]12C (stereo partly specified)', 'OVCAR-8', '> 100 µM (inactive)'),
  ('O=C/C(=C(/Br)I)c1ccccc1', 'OVCAR-8', '2.83 µM (inactive)'),
  ('COC(C/C(=C/CO[Si](C(C)C)(C(C)C)C(C)C)C(=O)Nc1ccccc1I)OC', 'OVCAR-8', '33 µM (inactive)'),
  ('COC(=O)CC(NC(=O)OCc1ccccc1)C(C(=O)OCc1ccccc1)C1(C)OCCO1 (stereo unspecified)', 'OVCAR-8', '25.2 µM (inactive)'),
  ('CC1(CO)COC(C)(C)OC1', 'OVCAR-8', '> 100 µM (inactive)'),
  ('CCCCCC(O)(CCCCC)CCCCCCCCC1=C(O)C(=O)c2ccc(=O)[nH]c2C1=O', 'OVCAR-8', '9.06 µM (inactive)'),
  ('Nc1ccc(S(=O)(=O)c2ccc(/N=[N+](\[O-])c3ccc(S(=O)(=O)c4ccc(N)cc4)cc3)cc2)cc1', 'OVCAR-8', '41.2 µM (inactive)'),
  ('CC(C)=CCNc1ncnc2[nH]cnc12', 'OVCAR-8', '> 100 µM (inactive)'),
  ('CC(C)(C)[C@H]1CC[C@@](O)(c2ccccc2)CC1.CC(C)(C)[C@H]1CC[C@](O)(c2ccccc2)CC1', 'OVCAR-8', '18.7 µM (inactive)'),
  ('Cc1cccc(NC(=S)Nc2ccc([N+](=O)[O-])cc2)n1', 'OVCAR-8', '> 100 µM (inactive)'),
  ('CN(C)/C=[N+]1/[C@@H](Cc2ccccc2)C(=O)O[B-]1(F)c1ccccc1 (stereo partly specified)', 'OVCAR-8', '> 100 µM (inactive)'),
  ('O=C1/C(=C/c2ccccc2)CNC/C1=C\c1ccccc1', 'OVCAR-8', '1.71 µM (inactive)'),
  ('C/C(CC(=O)Nc1ccccc1C)=N/NS(=O)(=O)c1ccc(C)cc1', 'OVCAR-8', '> 100 µM (inactive)'),
  ('CN1CCc2[nH]nc(-c3n[nH]c4c3CN(C)CC4)c2C1', 'OVCAR-8', '> 100 µM (inactive)'),
  ('O=C(C1OC1c1ccc(Cl)cc1)C12CC3CC(CC(C3)C1)C2 (stereo unspecified)', 'OVCAR-8', '16.5 µM (inactive)'),
  ('COC(=O)CCC(NC(=S)N/N=C/c1cccs1)C(=O)OC (stereo unspecified)', 'OVCAR-8', '> 100 µM (inactive)'),
  ('NC(Cc1ccccc1)c1nn[nH]n1 (stereo unspecified)', 'OVCAR-8', '> 100 µM (inactive)'),
  ('C=C1C(=O)[C@@]23CC[C@@H]4[C@@]5(C)CCC[C@@]4(OC5=O)C2(C)CC[C@]1(OC)C3 (stereo partly specified)', 'OVCAR-8', '0.611 µM (active)'),
  ('COc1ccc(C2=C(N)c3ccccc3C2=O)cc1', 'OVCAR-8', '37.8 µM (inactive)'),
  ('S=P1(Sc2ccccc2)Oc2ccc3ccccc3c2-c2c(ccc3ccccc23)O1', 'OVCAR-8', '> 100 µM (inactive)'),
  ('CC1=C(C(=O)NNC(=O)CC#N)CC(C(=O)NNC(=O)CC#N)=C(C)N1', 'OVCAR-8', '> 100 µM (inactive)'),
  ('CCc1ccc(CCN2CCCCC2)nc1', 'OVCAR-8', '> 100 µM (inactive)'),
  ('N=c1oc2ccc(Cl)cc2cc1C(=O)Nc1ccccc1', 'OVCAR-8', '56.5 µM (inactive)'),
  ('CCc1nc(N)nc(N)c1-c1ccc2nn(-c3ccccc3)[n+]([O-])c2c1', 'OVCAR-8', '2.42 µM (inactive)'),
  ('NC(=S)N/N=C(/C(=O)Nc1nc2ccc([N+](=O)[O-])cc2s1)C1C(=O)NC(=S)NC1=O', 'OVCAR-8', '> 100 µM (inactive)'),
  ('C/C(=C1/N=C(c2cc([N+](=O)[O-])ccc2Cl)N(c2ccc(Br)cc2)C1=O)c1ccc(N(CCC#N)CCC#N)cc1C', 'OVCAR-8', '43.5 µM (inactive)'),
  ('CC(C)C1CC=NN1C(=O)OC(C)(C)C (stereo unspecified)', 'OVCAR-8', '> 100 µM (inactive)'),
  ('O=C(N/S(=N/S(=O)(=O)c1ccc(Br)cc1)C(Cl)(Cl)Cl)c1ccccc1 (stereo unspecified)', 'OVCAR-8', '> 100 µM (inactive)'),
  ('NC(=S)N1N=C2c3ccccc3CCC[C@H]2[C@@H]1c1ccccc1', 'OVCAR-8', '3.2 µM (inactive)'),
  ('CCOP(=O)(OCC)C(C#N)Cc1ccco1 (stereo unspecified)', 'OVCAR-8', '> 10 µM (inactive)'),
  ('CCOC(=O)c1c[nH]c2c(ccc3nn(C)nc32)c1=O', 'OVCAR-8', '> 100 µM (inactive)'),
  ('Cc1nn(C(=O)c2ccccc2O)c2c1C(c1ccc(O)cc1)SC(=N)N2 (stereo unspecified)', 'OVCAR-8', '> 2.47 µM (inactive)'),
  ('COc1ccc2c(c1)CCC1=C/C(=N\NC(N)=O)CCC12C (stereo unspecified)', 'OVCAR-8', '> 10 µM (inactive)'),
  ('O=c1c2cc(I)ccc2nc(Sc2ccc([N+](=O)[O-])cc2[N+](=O)[O-])n1Cc1ccccc1', 'OVCAR-8', '1.6 µM (inactive)'),
  ('O=C(Cc1nc2c3c(ccc2nc1O)C(=O)c1ccccc1C3=O)C(=O)Nc1ccccc1[N+](=O)[O-]', 'OVCAR-8', '17.1 µM (inactive)'),
  ('C1=Cc2nc1c(-c1ccccc1)c1ccc([n-]1)c(-c1ccccc1)c1nc(c(-c3ccccc3)c3ccc([n-]3)c2-c2ccccc2)C=C1.[Zn+2]', 'OVCAR-8', '> 100 µM (inactive)'),
  ('COc1ccc([N+]2=NC(c3ccc([N+](=O)[O-])cc3)=NN(c3ccccc3)C2)cc1.[O-][Cl+3]([O-])([O-])[O-]', 'OVCAR-8', '> 100 µM (inactive)'),
  ('COc1cc(/C=C2\Cc3ccccc3C2=O)cc(OC)c1OC', 'OVCAR-8', '> 100 µM (inactive)');
